Test system: ryegrass, Italian (Italian ryegrass, Lolium multiflorum)
Assay: Test A preemergence
Assay type: in vivo
Conditions: 500 g ai/ha, preemergence; 0 to 100 scale, 0 = no effect, 100 = complete control
VALUE KIND: Plant response rating, Ryegrass, Italian
Field format: numeric only.

Known results for compounds:
O=C1NCC(c2cccc(Br)c2)C1C(=O)Nc1ccc(F)c(F)c1F (racemic); 20
O=C1NCC(c2ccc(I)cc2)C1C(=O)Nc1ccccc1F (racemic); 0
O=C1NCC(c2cccc(Br)c2)C1C(=O)Nc1ccccc1F (racemic); 20
CN1CC(c2cccc(OC(F)F)c2)C(C(=O)Nc2ccc(F)cc2F)C1=O (centres unmarked); 90
C#Cc1cccc(C2CNC(=O)C2C(=O)Nc2cccc(F)c2F)c1 (racemic); 40
CN1CC(c2cc(F)cc(F)c2)C(C(=O)Nc2cccc3c2CCC3)C1=O (centres unmarked); 30
O=C1NCC(c2cccc(C(F)(F)F)c2)C1C(=O)Nc1ccc(Cl)cc1F (racemic); 20
Cc1ccc(C2CNC(=O)C2C(=O)Nc2ccc(F)cc2F)cc1C(F)(F)F (racemic); 60
O=C1NCC(c2ccc(I)cc2)C1C(=O)Nc1ccccc1Cl (racemic); 20
Cc1ccc(C2CN(C)C(=O)C2C(=O)Nc2ccc(F)cc2F)cc1 (centres unmarked); 80

Query: Given the entry O=C1NCC(c2csc(Br)c2)C1C(=O)Nc1cccc(F)c1F (racemic) , report its measured Plant response rating, Ryegrass, Italian.
Response: 70

Reference source for all entries: patent US12077503B2
